Biological target: PL^pro (SARS-CoV-2) (Severe acute respiratory syndrome coronavirus 2, UniProt P0DTD1)
Assay: biochemical
pIC50: −log10 of the molar value.
MEASURE_NAME: pIC50

Inquiry: Output pIC50 of COc1ccc2c(c1)n(C(C)C)c[n+]2C(C)C
Reply text: < 4.00

###

Test: Conductometry in DMSO
Assay type: physicochemical
Conditions: 1.0 mM solution in DMSO, 24 h
MEASURE_NAME: Conductivity ΛM (S mol^−1 cm^2)
Number in S mol^−1 cm^2, nothing else.

Worked cases, answers included:
{"columns": ["COMPOUND", "Conductivity ΛM, S mol^−1 cm^2"],
 "data": [
  ["COc1ccc2c(c1)n(C(C)C)c[n+]2C(C)C.[Ag][I] [Ag-4b]", 6.92],
  ["O=[N+]([O-])[O-].[Ag+] [AgNO3, silver nitrate, reference compound]", 38],
  ["CCn1c[n+](CC)c2ccc(OC)cc21.[Cl][Ag] [Ag-2a]", 3.13]
]}

Inquiry: Output Conductivity ΛM of COc1ccc2c(c1)n(C(C)C)c[n+]2C(C)C.[Cl][Ag] [Ag-4a]
Reply text: 2.25

Inquiry: Output Conductivity ΛM of CC(=O)O.[Ag+].c1ccc(CN2[CH-]N(Cc3ccccc3)C(c3ccccc3)=C2c2ccccc2)cc1 [SBC3, reference compound]
Reply text: 2.25

###

The following molecules are shown together with reported Conductivity ΛM values.
Assay: Conductometry in DMSO
Format: physicochemical
Conditions: 1.0 mM solution in DMSO, 24 h
Number in S mol^−1 cm^2, nothing else.

Worked cases, answers included:
{"columns": ["QUERY_SMILES", "UNIT_ABBREV", "OBSERVED_VALUE"],
 "data": [
  ["CCn1c[n+](CC)c2ccccc21.[Ag][I]", "S mol^−1 cm^2", 9.31],
  ["CC(C)n1c[n+](C(C)C)c2ccccc21.[Ag][I]", "S mol^−1 cm^2", 7.00],
  ["CC(C)n1c[n+](C(C)C)c2ccccc21.[Cl][Ag]", "S mol^−1 cm^2", 2.70],
  ["CCn1c[n+](CC)c2ccccc21.[Cl][Ag]", "S mol^−1 cm^2", 3.09]
]}

Pending molecule:
Inquiry: Output Conductivity ΛM of CCn1c[n+](CC)c2ccc(OC)cc21.[Ag][I]
Reply text: 9.25

// provenance: paper PMC10357933
